Origin of values: ChEMBL document CHEMBL4680238

Test: Half life in Sprague-Dawley rat at 5 mg/kg, iv measured up to 72 hrs by LC-MS/MS analysis
Format: ADME, organism-based
Conditions: in vivo
Residues, ends and D or L forms follow the SMILES beside them. *: point of attachment. X1 = CC(=O)O[C@@]12CO[C@@H]1C[C@H](O)[C@@]1(C)C(=O)[C@H](O)C3=C(C)[C@@H](OC(=O)[C@H](OC(=O)OCc4ccc(N*)cc4)[C@@H](NC(=O)OC(C)(C)C)c4ccccc4)C[C@@](O)([C@@H](OC(=O)c4ccccc4)[C@H]21)C3(C)C
Result type: half-life (min)
Respond numerically; units are min and should not be typed.

Check the records and state half-life for CC[C@H](C)[C@H](NC(=O)CNC(=O)[C@H](CCC(N)=O)NC(=O)[C@@H]1CCCN1C(=O)CNC(C)=O)C(=O)N[C@@H](C)C(=O)N[C@@H](CCSC)C(=O)N[C@@H](CCC(N)=O)C(=O)N[C@@H](CC(C)C)C(=O)Nc1ccc(COC(=O)O[C@@H](C(=O)O[C@H]2C[C@@]3(O)[C@@H](OC(=O)c4ccccc4)[C@@H]4[C@]5(OC(C)=O)CO[C@@H]5C[C@H](O)[C@@]4(C)C(=O)[C@H](O)C(=C2C)C3(C)C)[C@@H](NC(=O)OC(C)(C)C)c2ccccc2)cc1 (Ac-GPQGIAMQL-X1) 769

Consider the molecule CC(=O)O[C@@]12CO[C@@H]1C[C@H](O)[C@@]1(C)C(=O)[C@H](O)C3=C(C)[C@@H](OC(=O)[C@H](O)[C@@H](NC(=O)OC(C)(C)C)c4ccccc4)C[C@@](O)([C@@H](OC(=O)c4ccccc4)[C@H]21)C3(C)C [DOCETAXEL ANHYDROUS] . State its measured half-life. 345

====

Tested on: SW-620
Assay: Cytotoxicity against human SW-620 cells assessed as reduction in cell viability after 72 hrs by MTT assay
Format: functional, cell-based
Details: SW-620, 72 h
Residues, ends and D or L forms follow the SMILES beside them. *: point of attachment. X2 = CC(=O)O[C@@]12CO[C@@H]1C[C@H](O)[C@@]1(C)C(=O)[C@H](O)C3=C(C)[C@@H](OC(=O)[C@H](OC(=O)OCc4ccc(N*)cc4)[C@@H](NC(=O)OC(C)(C)C(F)(F)F)c4ccccc4)C[C@@](O)([C@@H](OC(=O)c4cccc(F)c4)[C@H]21)C3(C)C; Fmoc = O=C(OCC1c2ccccc2-c2ccccc21)*
Reported IC50 values for a set of compounds
Report as a plain number; the unit nM is understood.

Compound | Unit info | IC50
CC(=O)O[C@@]12CO[C@@H]1C[C@H](O)[C@@]1(C)C(=O)[C@H](O)C3=C(C)[C@@H](OC(=O)[C@H](O)[C@@H](NC(=O)OC(C)(C)C(F)(F)F)c4ccccc4)C[C@@](O)([C@@H](OC(=O)c4cccc(F)c4)[C@H]21)C3(C)C | nM | 280
CC[C@H](C)[C@H](NC(=O)CNC(=O)[C@H](CC(C)C)NC(=O)[C@@H]1CCCN1C(=O)CNC(=O)OCC1c2ccccc2-c2ccccc21)C(=O)N[C@@H](C)C(=O)NCC(=O)N[C@@H](CCC(N)=O)C(=O)N[C@@H](CC(C)C)C(=O)Nc1ccc(COC(=O)O[C@@H](C(=O)O[C@H]2C[C@@]3(O)[C@@H](OC(=O)c4cccc(F)c4)[C@@H]4[C@]5(OC(C)=O)CO[C@@H]5C[C@H](O)[C@@]4(C)C(=O)[C@H](O)C(=C2C)C3(C)C)[C@@H](NC(=O)OC(C)(C)C(F)(F)F)c2ccccc2)cc1 (Fmoc-GPLGIAGQL-X2) | nM | 210
O=c1[nH]cc(F)c(=O)[nH]1 [FLUOROURACIL] | nM | 6960

Continue with the compound presented below.
Specify IC50 for CC(=O)O[C@@]12CO[C@@H]1C[C@H](O)[C@@]1(C)C(=O)[C@H](O)C3=C(C)[C@@H](OC(=O)[C@H](O)[C@@H](NC(=O)OC(C)(C)C)c4ccccc4)C[C@@](O)([C@@H](OC(=O)c4ccccc4)[C@H]21)C3(C)C [DOCETAXEL ANHYDROUS] and stop. 20

====

Assay: Half life in Sprague-Dawley rat plasma t 50 ug/ml up to 72 hrs by RP-HPLC analysis
Format: ADME, cell-free
Conditions: dose 50 µg/ml
Residues, ends and D or L forms follow the SMILES beside them. *: point of attachment. X2 = CC(=O)O[C@@]12CO[C@@H]1C[C@H](O)[C@@]1(C)C(=O)[C@H](O)C3=C(C)[C@@H](OC(=O)[C@H](OC(=O)OCc4ccc(N*)cc4)[C@@H](NC(=O)OC(C)(C)C(F)(F)F)c4ccccc4)C[C@@](O)([C@@H](OC(=O)c4cccc(F)c4)[C@H]21)C3(C)C; X1 = CC(=O)O[C@@]12CO[C@@H]1C[C@H](O)[C@@]1(C)C(=O)[C@H](O)C3=C(C)[C@@H](OC(=O)[C@H](OC(=O)OCc4ccc(N*)cc4)[C@@H](NC(=O)OC(C)(C)C)c4ccccc4)C[C@@](O)([C@@H](OC(=O)c4ccccc4)[C@H]21)C3(C)C
Result type: half-life at 50 ug/ml (h)
Write the answer as a number in h, unit excluded.

Would you please look over these solved cases?
Compound | Unit info | half-life at 50 ug/ml
CC[C@H](C)[C@H](NC(=O)CNC(=O)[C@H](CCSC)NC(=O)[C@@H]1CCCN1C(=O)CNC(C)=O)C(=O)N[C@@H](C)C(=O)NCC(=O)N[C@@H](CCC(N)=O)C(=O)N[C@@H](CC(C)C)C(=O)Nc1ccc(COC(=O)O[C@@H](C(=O)O[C@H]2C[C@@]3(O)[C@@H](OC(=O)c4ccccc4)[C@@H]4[C@]5(OC(C)=O)CO[C@@H]5C[C@H](O)[C@@]4(C)C(=O)[C@H](O)C(=C2C)C3(C)C)[C@@H](NC(=O)OC(C)(C)C)c2ccccc2)cc1 (Ac-GPMGIAGQL-X1) | h | 23.9
CC[C@H](C)[C@H](NC(=O)CNC(=O)[C@H](CCC(N)=O)NC(=O)[C@@H]1CCCN1C(=O)CNC(C)=O)C(=O)N[C@@H](C)C(=O)N[C@@H](CCSC)C(=O)N[C@@H](CCC(N)=O)C(=O)N[C@@H](CC(C)C)C(=O)Nc1ccc(COC(=O)O[C@@H](C(=O)O[C@H]2C[C@@]3(O)[C@@H](OC(=O)c4ccccc4)[C@@H]4[C@]5(OC(C)=O)CO[C@@H]5C[C@H](O)[C@@]4(C)C(=O)[C@H](O)C(=C2C)C3(C)C)[C@@H](NC(=O)OC(C)(C)C)c2ccccc2)cc1 (Ac-GPQGIAMQL-X1) | h | 24.2
CC[C@H](C)[C@H](NC(=O)CNC(=O)[C@H](CCSC)NC(=O)[C@@H]1CCCN1C(=O)CNC(C)=O)C(=O)N[C@@H](C)C(=O)NCC(=O)N[C@@H](CCC(N)=O)C(=O)N[C@@H](CC(C)C)C(=O)Nc1ccc(COC(=O)O[C@@H](C(=O)O[C@H]2C[C@@]3(O)[C@@H](OC(=O)c4cccc(F)c4)[C@@H]4[C@]5(OC(C)=O)CO[C@@H]5C[C@H](O)[C@@]4(C)C(=O)[C@H](O)C(=C2C)C3(C)C)[C@@H](NC(=O)OC(C)(C)C(F)(F)F)c2ccccc2)cc1 (Ac-GPMGIAGQL-X2) | h | 24

Next item in the queue.
Report measured half-life at 50 ug/ml; entry is CC[C@H](C)[C@H](NC(=O)[C@H](C)NC(=O)[C@H](CCC(N)=O)NC(=O)[C@@H]1CCCN1C(=O)CNC(C)=O)C(=O)N[C@@H](C)C(=O)NCC(=O)N[C@@H](CCC(N)=O)C(=O)N[C@@H](CC(C)C)C(=O)Nc1ccc(COC(=O)O[C@@H](C(=O)O[C@H]2C[C@@]3(O)[C@@H](OC(=O)c4cccc(F)c4)[C@@H]4[C@]5(OC(C)=O)CO[C@@H]5C[C@H](O)[C@@]4(C)C(=O)[C@H](O)C(=C2C)C3(C)C)[C@@H](NC(=O)OC(C)(C)C(F)(F)F)c2ccccc2)cc1 (Ac-GPQAIAGQL-X2) 24

====

Test: MRT (0 to infinity) in Sprague-Dawley rat at 5 mg/kg, iv measured up to 72 hrs by LC-MS/MS analysis
Type: ADME, organism-based
Conditions: in vivo
Residues, ends and D or L forms follow the SMILES beside them. *: point of attachment. X1 = CC(=O)O[C@@]12CO[C@@H]1C[C@H](O)[C@@]1(C)C(=O)[C@H](O)C3=C(C)[C@@H](OC(=O)[C@H](OC(=O)OCc4ccc(N*)cc4)[C@@H](NC(=O)OC(C)(C)C)c4ccccc4)C[C@@](O)([C@@H](OC(=O)c4ccccc4)[C@H]21)C3(C)C
Result type: MRT inf (h)
Your answer should be a plain number; it is taken to be in h.

Compound | Observed measurement
CC(=O)O[C@@]12CO[C@@H]1C[C@H](O)[C@@]1(C)C(=O)[C@H](O)C3=C(C)[C@@H](OC(=O)[C@H](O)[C@@H](NC(=O)OC(C)(C)C)c4ccccc4)C[C@@](O)([C@@H](OC(=O)c4ccccc4)[C@H]21)C3(C)C [DOCETAXEL ANHYDROUS] | 3.76

Proceed to the following item.
Name the recorded MRT inf of the item CC[C@H](C)[C@H](NC(=O)CNC(=O)[C@H](CCC(N)=O)NC(=O)[C@@H]1CCCN1C(=O)CNC(C)=O)C(=O)N[C@@H](C)C(=O)N[C@@H](CCSC)C(=O)N[C@@H](CCC(N)=O)C(=O)N[C@@H](CC(C)C)C(=O)Nc1ccc(COC(=O)O[C@@H](C(=O)O[C@H]2C[C@@]3(O)[C@@H](OC(=O)c4ccccc4)[C@@H]4[C@]5(OC(C)=O)CO[C@@H]5C[C@H](O)[C@@]4(C)C(=O)[C@H](O)C(=C2C)C3(C)C)[C@@H](NC(=O)OC(C)(C)C)c2ccccc2)cc1 (Ac-GPQGIAMQL-X1) in your answer. 11.6
